Source of measurements: patent US20090143279A1

System: nuOXPHOS transcripts
Format: cell-based, mouse
ASSAY_SETUP: Table 7; C2C12 myotubes, 48 h, composite Z-score

[
  {
    "COMPOUND": "O=C1C(Cl)=C(Cl)C(=O)C(Cl)=C1Cl [Chloranil, reference compound]",
    "ASSAYED_SYSTEM": "nuOXPHOS transcripts",
    "nucOXPHOS Z": "−2.45"
  },
  {
    "COMPOUND": "CC(C)=CCC[C@]1(C)C=Cc2c(O)c3c(c(CC=C(C)C)c2O1)O[C@]12C(=C[C@@H]4CC1C(C)(C)O[C@@]2(C/C=C(/C)C(N)=O)C4=O)C3=O [gambogic acid amide, reference compound]",
    "ASSAYED_SYSTEM": "nuOXPHOS transcripts",
    "nucOXPHOS Z": "−4.01"
  },
  {
    "COMPOUND": "N=C1C=CC(=C(c2ccc(N)cc2)c2ccc(N)cc2)C=C1 [Pararosaniline, reference compound]",
    "ASSAYED_SYSTEM": "nuOXPHOS transcripts",
    "nucOXPHOS Z": "−2.25"
  },
  {
    "COMPOUND": "COc1ccc2c(c1)c(CC(=O)O)c(C)n2C(=O)c1ccc(Cl)cc1 [Indomethacin, reference compound]",
    "ASSAYED_SYSTEM": "nuOXPHOS transcripts",
    "nucOXPHOS Z": 1.32
  },
  {
    "COMPOUND": "COc1ccc(C[C@H]2NC[C@H](O)[C@H]2OC(C)=O)cc1 [Anisomycin, reference compound]",
    "ASSAYED_SYSTEM": "nuOXPHOS transcripts",
    "nucOXPHOS Z": 1.26
  },
  {
    "COMPOUND": "CC[C@@]1(O)C[C@H](O[C@H]2C[C@H](N(C)C)[C@H](O)[C@H](C)O2)c2c(cc3c(c2O)C(=O)c2c(O)ccc(O)c2C3=O)[C@H]1C(=O)OC [Pyrromycin, reference compound]",
    "ASSAYED_SYSTEM": "nuOXPHOS transcripts",
    "nucOXPHOS Z": "−2.89"
  },
  {
    "COMPOUND": "CC[C@@]1([C@@H]2O[C@@H]([C@H]3O[C@@](O)(CO)[C@H](C)C[C@@H]3C)C[C@@H]2C)CC[C@H]([C@]2(C)CC[C@]3(C[C@H](O)[C@@H](C)[C@@H]([C@@H](C)[C@@H](OC)[C@H](C)C(=O)O)O3)O2)O1 [monensin, reference compound]",
    "ASSAYED_SYSTEM": "nuOXPHOS transcripts",
    "nucOXPHOS Z": 0.70
  }
]

---

System: nuOXPHOS transcripts
Type: cell-based, mouse
ASSAY_SETUP: normalized composite Z-score vs mock-treated (DMSO) wells; Conc 20 μM
Label condition not met if nucOX falls below -0.2; label condition met in every other case.

[
  {
    "COMPOUND": "CCCCCC1C(=O)CCC1CC(=O)O (stereo not drawn) [dihydrojasmonic acid]",
    "ASSIGNED_LABEL": "condition met"
  },
  {
    "COMPOUND": "COc1cc2c(cc1OC)C1(O)C(=O)c3ccc(O)c(C(=O)O)c3OC1CO2 (stereo not drawn)",
    "ASSIGNED_LABEL": "condition met"
  },
  {
    "COMPOUND": "C=C/C(C)=C\\CC1C(C)(O)CCC2C(C)(C)CCCC21C (stereo not drawn)",
    "ASSIGNED_LABEL": "condition met"
  },
  {
    "COMPOUND": "COc1cc(OC)c2c(OC)c(-c3ccc4c(c3)OCO4)c(=O)oc2c1",
    "ASSIGNED_LABEL": "condition met"
  },
  {
    "COMPOUND": "C=C1CC[C@H]2O[C@]2(C)CC[C@@H]2[C@@H]1CC2(C)C [carylophyllene oxide]",
    "ASSIGNED_LABEL": "condition met"
  },
  {
    "COMPOUND": "COc1c(-c2coc3cc4c(cc3c2=O)CC(O)C(C)(C)O4)ccc2c1C=CC(C)(C)O2 (stereo not drawn) [mundulone, reference compound]",
    "ASSIGNED_LABEL": "condition not met"
  },
  {
    "COMPOUND": "CC(C)c1ccc2c(c1)CC[C@H]1[C@](C)(C(N)=O)CCC[C@]21C [dehydroabietamide]",
    "ASSIGNED_LABEL": "condition not met"
  },
  {
    "COMPOUND": "C=C1C(N)CC2CC1C2(C)C (stereo not drawn)",
    "ASSIGNED_LABEL": "condition not met"
  },
  {
    "COMPOUND": "COC(=O)c1c(OC)cc2c(c1C)Oc1c(Cl)c(O)c(Cl)c(C)c1C(=O)O2",
    "ASSIGNED_LABEL": "condition not met"
  }
]
